target: 3TD of SETDB1, F332A mutant, as used in ITC (UniProt Q15047 190-410, F332A); assay: ITC
Where no end group is shown, it is not given here.
Measured Metric: pKd
Give bare numbers, as −log10 of the molar value.

Provide pKd value for the following binder: KQTARK(Me2)STGGK(Ac)APRKQ [H3K9me2/K14ac peptide in solution (ITC; crystal with W358A), limits not stated]
3.45
